- subjectOfTest: T1, human CD64 (recombinant) (human, UniProt P12314 16-288)
- T1 chain: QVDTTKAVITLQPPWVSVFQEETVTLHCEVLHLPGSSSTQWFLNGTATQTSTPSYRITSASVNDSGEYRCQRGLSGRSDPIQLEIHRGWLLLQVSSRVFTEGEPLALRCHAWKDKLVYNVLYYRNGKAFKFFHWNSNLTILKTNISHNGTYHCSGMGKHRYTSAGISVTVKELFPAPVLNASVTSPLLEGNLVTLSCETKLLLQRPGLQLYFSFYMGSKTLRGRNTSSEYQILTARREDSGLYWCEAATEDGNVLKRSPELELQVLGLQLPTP
- procedureText: BLI
Bridges are numbered along the chain shown (N, C = ends). Primed or numbered codes have the meaning given here. Where no end group is shown, it is not given here. The star is where a group is joined. Biotin = O=C1N[C@H]2[C@H](CS[C@H]2CCCCC(=O)*)N1; azido = azide group (monovalent —N3); DBCO′ = not defined here; PEG4′ = not defined here
recordedEndpoint: pKd
By convention, pKd is the negative base-10 log of a molar concentration.

stdin: Retrieve pKd measured for {Biotin-PEG4′-DBCO′-azido}-VNSCLLLPNLLGCGDD (disulfide 4-13; not fully specified) [native CP-33-linker-biotin conjugate] and print it.
stdout: 7.25

Just for reference, patent US20240083971A1 is where these values come from.
